Every entry's value here was drawn from paper PMC4585259.

- Measured On: rNav1.2 sodium channels (Rattus norvegicus)
- Construct: host or cells: HEK-293
- Measurement Description: QPatch automated patch clamp, inhibition of sodium currents evoked by 5 Hz trains at three extracellular pH values
- Type: cell-based
- Experimental Conditions: pH 6.0; concentration (lidocaine 300 μM, memantine 30 μM)
Is τoffset at least 20 s? Then true (1). If not, false (0).

Examples from the recorded data:
Compound	Class
Nc1nnc(-c2cccc(Cl)c2Cl)c(N)n1 [lamotrigine]	false (0)
Fc1ccc([C@@H]2CCNC[C@H]2COc2ccc3c(c2)OCO3)cc1 [paroxetine]	true (1)
CCCCN1CCCCC1C(=O)Nc1c(C)cccc1C (stereo not shown) [bupivacaine]	true (1)
Nc1nc2ccc(OC(F)(F)F)cc2s1 [riluzole]	true (1)
C[Si](C)(Cc1ccc(F)cc1)CN1CCCCC1 [silperisone]	false (0)

Tell me whether τoffset is at least 20 s here: CC12CC3CC(C)(C1)CC(N)(C3)C2 [memantine]
true (1)

Tell me whether τoffset is at least 20 s here: CN1CCN2c3ncccc3Cc3ccccc3C2C1 (stereo not shown) [mirtazapine]
false (0)

Tell me whether τoffset is at least 20 s here: CCc1nn(CCCN2CCN(c3cccc(Cl)c3)CC2)c(=O)n1CCOc1ccccc1 [nefazodone]
false (0)

====

- Measured On: rNav1.2 sodium channels (Rattus norvegicus)
- Construct: host or cells: HEK-293
- Measurement Description: QPatch automated patch clamp, inhibition of sodium currents evoked by 5 Hz trains at three extracellular pH values
- Format: cell-based
- Experimental Conditions: in words
Observed Property: effect of alkalic pH on onset/offset kinetics

Molecule	Measured On	Measured Result
CNCCCN1c2ccccc2CCc2ccccc21 [desipramine]	rNav1.2 sodium channels (Rattus norvegicus)	acceleration of onset
Cc1cccc(C)c1OCC(C)N (stereo not drawn) [mexiletine]	rNav1.2 sodium channels (Rattus norvegicus)	acceleration of onset
Fc1ccc([C@@H]2CCNC[C@H]2COc2ccc3c(c2)OCO3)cc1 [paroxetine]	rNav1.2 sodium channels (Rattus norvegicus)	acceleration of onset

====

- Measured On: rNav1.2 sodium channels (Rattus norvegicus, UniProt P04775)
- Construct: host or cells: HEK-293
- Sequence (P04775 whole entry): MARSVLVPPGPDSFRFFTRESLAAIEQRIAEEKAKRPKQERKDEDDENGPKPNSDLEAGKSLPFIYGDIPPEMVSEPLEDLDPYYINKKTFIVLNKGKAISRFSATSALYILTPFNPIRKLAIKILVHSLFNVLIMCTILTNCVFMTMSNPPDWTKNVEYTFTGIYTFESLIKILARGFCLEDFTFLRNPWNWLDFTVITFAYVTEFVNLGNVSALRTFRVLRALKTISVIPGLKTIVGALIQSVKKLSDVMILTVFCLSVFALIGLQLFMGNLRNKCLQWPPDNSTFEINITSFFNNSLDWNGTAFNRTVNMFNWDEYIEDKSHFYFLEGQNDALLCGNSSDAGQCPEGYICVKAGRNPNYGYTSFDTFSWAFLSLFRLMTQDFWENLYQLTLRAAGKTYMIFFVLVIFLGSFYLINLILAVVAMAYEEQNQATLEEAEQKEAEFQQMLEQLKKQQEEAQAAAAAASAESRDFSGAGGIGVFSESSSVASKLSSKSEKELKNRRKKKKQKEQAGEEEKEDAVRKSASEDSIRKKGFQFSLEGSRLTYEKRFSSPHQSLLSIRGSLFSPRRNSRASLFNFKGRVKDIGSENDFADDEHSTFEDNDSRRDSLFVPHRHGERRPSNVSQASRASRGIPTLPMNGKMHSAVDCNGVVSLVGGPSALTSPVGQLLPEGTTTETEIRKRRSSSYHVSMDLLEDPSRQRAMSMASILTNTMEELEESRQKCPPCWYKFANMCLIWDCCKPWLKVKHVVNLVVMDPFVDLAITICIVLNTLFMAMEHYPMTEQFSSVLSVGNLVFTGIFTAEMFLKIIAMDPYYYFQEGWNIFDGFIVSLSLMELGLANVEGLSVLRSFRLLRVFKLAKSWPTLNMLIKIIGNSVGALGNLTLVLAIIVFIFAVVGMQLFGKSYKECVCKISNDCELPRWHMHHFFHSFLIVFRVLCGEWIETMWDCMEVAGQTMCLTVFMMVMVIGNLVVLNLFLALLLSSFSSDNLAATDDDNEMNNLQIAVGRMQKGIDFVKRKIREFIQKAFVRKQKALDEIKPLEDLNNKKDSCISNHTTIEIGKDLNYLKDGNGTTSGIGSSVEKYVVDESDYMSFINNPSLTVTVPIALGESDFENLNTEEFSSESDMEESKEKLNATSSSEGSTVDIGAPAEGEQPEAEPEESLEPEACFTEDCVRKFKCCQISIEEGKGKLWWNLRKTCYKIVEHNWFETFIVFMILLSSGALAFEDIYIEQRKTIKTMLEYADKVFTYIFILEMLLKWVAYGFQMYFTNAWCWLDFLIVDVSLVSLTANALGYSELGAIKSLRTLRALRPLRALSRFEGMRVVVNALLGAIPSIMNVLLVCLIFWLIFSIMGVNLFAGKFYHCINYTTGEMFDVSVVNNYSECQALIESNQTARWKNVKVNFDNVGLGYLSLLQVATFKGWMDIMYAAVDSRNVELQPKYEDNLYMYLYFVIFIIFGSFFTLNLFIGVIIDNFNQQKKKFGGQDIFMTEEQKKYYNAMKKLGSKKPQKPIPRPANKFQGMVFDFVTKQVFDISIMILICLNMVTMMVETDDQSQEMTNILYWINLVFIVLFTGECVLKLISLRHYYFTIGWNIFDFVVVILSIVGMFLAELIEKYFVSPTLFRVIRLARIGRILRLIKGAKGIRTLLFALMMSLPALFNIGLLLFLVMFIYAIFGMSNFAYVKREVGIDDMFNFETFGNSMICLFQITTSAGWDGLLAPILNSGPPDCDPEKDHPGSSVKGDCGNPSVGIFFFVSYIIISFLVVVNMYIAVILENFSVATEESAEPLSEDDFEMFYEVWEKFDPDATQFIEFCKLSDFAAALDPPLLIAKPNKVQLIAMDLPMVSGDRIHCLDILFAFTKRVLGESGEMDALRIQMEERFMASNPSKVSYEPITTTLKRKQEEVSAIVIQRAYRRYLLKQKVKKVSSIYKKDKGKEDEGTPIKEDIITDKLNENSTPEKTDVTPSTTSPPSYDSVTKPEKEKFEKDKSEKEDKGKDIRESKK
- Measurement Description: QPatch automated patch clamp, inhibition of sodium currents evoked by 5 Hz trains at three extracellular pH values
- Assay type: cell-based
- Experimental Conditions: pH 7.3; single concentration (lidocaine 300 μM, memantine 30 μM); geometric mean of 5; read-out: apparent affinity
- Method: HEK-293 cells stably expressing rNav1.2 sodium channels were obtained from NeuroSearch (Ballerup, Denmark). The cells were grown in Dulbecco's modified Eagle medium supplemented with 10% FBS. Prior to use, the cells were trypsinized and subsequently kept in suspension in the QPatch cell storage facility in CHO-S- SFM-II medium. […] Data were sampled at a frequency of 25 kHz and filtered at 5 kHz. Junction potential was calculated to be −11 mV and was corrected for. […]
// assign t if Kd falls strictly below 90 µM, else f (ties count as f)

Examples from the recorded data:
Compound	Class
COc1ccccc1OCC(O)CN1CCN(CC(=O)Nc2c(C)cccc2C)CC1 (stereo not drawn)	f
Nc1nnc(-c2cccc(Cl)c2Cl)c(N)n1	f
O=C1NC(=O)C(c2ccccc2)(c2ccccc2)N1	f

Could you please tell me whether Kd recorded for Cc1ccc(C(=O)C(C)CN2CCCCC2)cc1 (stereo not drawn) is less than 90 µM?
f

Could you please tell me whether Kd recorded for "C[Si](C)(Cc1ccc(F)cc1)CN1CCCCC1" is less than 90 µM?
f

Could you please tell me whether Kd recorded for "Fc1ccc([C@@H]2CCNC[C@H]2COc2ccc3c(c2)OCO3)cc1" is less than 90 µM?
t

Could you please tell me whether Kd recorded for CCCCN1CCCCC1C(=O)Nc1c(C)cccc1C (stereo not drawn) is less than 90 µM?
t

Could you please tell me whether Kd recorded for "Cc1nc2sccn2c(=O)c1CCN1CCC(=C(c2ccc(F)cc2)c2ccc(F)cc2)CC1" is less than 90 µM?
t

====

- Measured On: rNav1.2 sodium channels (Rattus norvegicus)
- Construct: host or cells: HEK-293
- Measurement Description: QPatch automated patch clamp, inhibition of sodium currents evoked by 5 Hz trains at three extracellular pH values
- Format: cell-based
- Experimental Conditions: pH 6.0/8.6; cc 100 mM
Is log Ratio App Aff at least 0.5? Then condition met. If not, condition not met.

Tell me whether log Ratio App Aff is at least 0.5 here: Cc1ccc(C(=O)C(C)CN2CCCCC2)cc1 (stereo not drawn)
condition met

Tell me whether log Ratio App Aff is at least 0.5 here: COc1ccccc1OCC(O)CN1CCN(CC(=O)Nc2c(C)cccc2C)CC1 (stereo not drawn)
condition not met

Tell me whether log Ratio App Aff is at least 0.5 here: CNCCC(Oc1ccccc1OC)c1ccccc1 (stereo not drawn)
condition met

Tell me whether log Ratio App Aff is at least 0.5 here: CC12CC3CC(C)(C1)CC(N)(C3)C2 [memantine]
condition met

Tell me whether log Ratio App Aff is at least 0.5 here: CN1CCN2c3ncccc3Cc3ccccc3C2C1 (stereo not drawn)
condition met

Tell me whether log Ratio App Aff is at least 0.5 here: "C[Si](C)(Cc1ccc(F)cc1)CN1CCCCC1"
condition met

====

- Measured On: rNav1.2 sodium channels (Rattus norvegicus)
- Construct: host or cells: HEK-293
- Measurement Description: QPatch automated patch clamp, inhibition of sodium currents evoked by 5 Hz trains at three extracellular pH values
- Format: cell-based
- Experimental Conditions: pH 7.3/8.6; cc 300 mM
Observed Property: Ratio Tau Onset

Record excerpt, results attached:
Compound	Ratio Tau Onset
NC(=O)N1c2ccccc2C=Cc2ccccc21 [carbamazepine]	1.000
Nc1nnc(-c2cccc(Cl)c2Cl)c(N)n1	0.813

// query Ratio Tau Onset value for entry "O=C1NC(=O)C(c2ccccc2)(c2ccccc2)N1"
0.660

// query Ratio Tau Onset value for entry O=C(NCC1CCCCN1)c1cc(OCC(F)(F)F)ccc1OCC(F)(F)F (centres unmarked) [flecainide]
3.237

// query Ratio Tau Onset value for entry Cc1cccc(C)c1OCC(C)N (centres unmarked)
1.214

====

- Measured On: rNav1.2 sodium channels (Rattus norvegicus, UniProt P04775)
- Construct: host or cells: HEK-293
- Measurement Description: QPatch automated patch clamp, inhibition of sodium currents evoked by 5 Hz trains at three extracellular pH values
- Format: cell-based
- Experimental Conditions: pH 7.3/8.6; cc 100 mM
Observed Property: Ratio Reversibility

Compound	Observed Property	Measured Result
CC12CC3CC(C)(C1)CC(N)(C3)C2 [memantine]	Ratio Reversibility	1.636
COc1ccc(C(CN(C)C)C2(O)CCCCC2)cc1 (centres unmarked)	Ratio Reversibility	0.999
Nc1c(Br)cc(Br)cc1CN[C@H]1CC[C@H](O)CC1	Ratio Reversibility	1.355

// query Ratio Reversibility value for entry Cc1ccc(C(=O)C(C)CN2CCCCC2)cc1 (centres unmarked)
1.349

// query Ratio Reversibility value for entry COc1ccccc1OCC(O)CN1CCN(CC(=O)Nc2c(C)cccc2C)CC1 (centres unmarked)
1.194

====

- Measured On: rNav1.2 sodium channels (Rattus norvegicus)
- Construct: host or cells: HEK-293
- Measurement Description: QPatch automated patch clamp, inhibition of sodium currents evoked by 5 Hz trains at three extracellular pH values
- Assay type: cell-based
- Experimental Conditions: Apparent Affinity, pH=8.6; cc 100 mM
Observed Property: Kd

Molecule	Observed Property	Measured Result
COc1ccc(C(CN(C)C)C2(O)CCCCC2)cc1 (centres unmarked) [venlafaxine]	Kd	174 µM

Could you now consider this next molecule?
// query Kd value for entry CNCCC(Oc1ccccc1OC)c1ccccc1 (centres unmarked) [nisoxetine]
28.6 µM

====

Listed here are compounds together with their documented pKd.
- Measured On: rNav1.2 sodium channels (Rattus norvegicus)
- Construct: host or cells: HEK-293
- Measurement Description: QPatch automated patch clamp, inhibition of sodium currents evoked by 5 Hz trains at three extracellular pH values
- Format: cell-based
- Experimental Conditions: pH=6.0; cc 300 mM; read-out: Apparent Affinity
Notebook: values listed as pKd are -log10 of the concentration (mol/L).

Record excerpt, results attached:
Compound	Measured Result
NC(=O)N1c2ccccc2C=Cc2ccccc21 [carbamazepine]	3.26
O=C1NC(=O)C(c2ccccc2)(c2ccccc2)N1	3.08
Cc1cccc(C)c1OCC(C)N (stereo not drawn)	3.46
Nc1nnc(-c2cccc(Cl)c2Cl)c(N)n1	3.48
CCN(CC)CC(=O)Nc1c(C)cccc1C	3.04

// query pKd value for entry O=C(NCC1CCCCN1)c1cc(OCC(F)(F)F)ccc1OCC(F)(F)F (stereo not drawn) [flecainide]
4.17

====

- Measured On: rNav1.2 sodium channels (Rattus norvegicus, UniProt P04775)
- Construct: host or cells: HEK-293
- Measurement Description: QPatch automated patch clamp, inhibition of sodium currents evoked by 5 Hz trains at three extracellular pH values
- Type: cell-based
- Experimental Conditions: pH 7.3; concentration (lidocaine 300 μM, memantine 30 μM)
Observed Property: τonset (s)
Answer in s, number only, no unit symbol.

Record excerpt, results attached:
Compound	τonset [s]
O=C1NC(=O)C(c2ccccc2)(c2ccccc2)N1	13.20
Nc1c(Br)cc(Br)cc1CN[C@H]1CC[C@H](O)CC1	8.60
Nc1nc2ccc(OC(F)(F)F)cc2s1	9.60

Please state recorded τonset (tested on rNav1.2 sodium channels (Rattus norvegicus, UniProt P04775)) of COc1ccccc1OCC(O)CN1CCN(CC(=O)Nc2c(C)cccc2C)CC1 (stereo not shown)
19.00

Please state recorded τonset (tested on rNav1.2 sodium channels (Rattus norvegicus, UniProt P04775)) of NC(=O)N1c2ccccc2C=Cc2ccccc21 [carbamazepine]
5.00

Please state recorded τonset (tested on rNav1.2 sodium channels (Rattus norvegicus, UniProt P04775)) of "Fc1ccc([C@@H]2CCNC[C@H]2COc2ccc3c(c2)OCO3)cc1"
33.39

Please state recorded τonset (tested on rNav1.2 sodium channels (Rattus norvegicus, UniProt P04775)) of O=C(NCC1CCCCN1)c1cc(OCC(F)(F)F)ccc1OCC(F)(F)F (stereo not shown) [flecainide]
24.60

Please state recorded τonset (tested on rNav1.2 sodium channels (Rattus norvegicus, UniProt P04775)) of COc1ccc(C(CN(C)C)C2(O)CCCCC2)cc1 (stereo not shown)
7.20
